Reference for the values: patent US20250382363A1

- System name: pre-existing anti-drug antibodies (ADA) present in human sera
- Experiment description: pre-existing ADA ELISA, scFv coated, human sera unspiked vs spiked
Measured quantity: Mean No of serum samples >30% inhibition (30% CCP) with SCP (serum samples)
Please reply with the value in numeric form only.

INSERT INTO assay_data (binder, recorded_value) VALUES
  ('PRO2943 (scFv 54-21-H03-sc01_(T146E)) (scFv, PRO1922 variant; VH substitution, AHo numbering; also called PRO1922 T146E) scFv: DIQMTQSPSSLSASVGDRVTITCQASESIYSSLAWYQQKPGKAPKLLIYLASTLASGVPSRFSGSGSGTDFTLTISSLQPEDFATYYCQSTDYTTSTHRNSFGTGTKVTVLGGGGGSGGGGSGGGGSGGGGSEVQLVESGGGLVQPGGSLRLSCAASGFSFSTTYYMCWVRQAPGKGLEWIGCTNTASSVRTYYATWAKGRFTISRDNSKNTVYLQMNSLRAEDTAVYYCARDMGFADYALNLWGQGTLVEVSS', 2),
  ('PRO3347 (scFv 54-21-H03-sc01_(T101S, T146S)) (scFv, PRO1922 variant; VH substitutions, AHo numbering; also called PRO1922 T101S-T146S) scFv: DIQMTQSPSSLSASVGDRVTITCQASESIYSSLAWYQQKPGKAPKLLIYLASTLASGVPSRFSGSGSGTDFTLTISSLQPEDFATYYCQSTDYTTSTHRNSFGTGTKVTVLGGGGGSGGGGSGGGGSGGGGSEVQLVESGGGLVQPGGSLRLSCAASGFSFSTTYYMCWVRQAPGKGLEWIGCTNTASSVRTYYATWAKGRFTISRDNSKNTVYLQMNSLRAEDSAVYYCARDMGFADYALNLWGQGTLVSVSS', 3);

Query: What Mean No of serum samples >30% inhibition (30% CCP) with SCP (serum samples) value was documented for this binder, PRO3340 (scFv 37-20-B03-sc09.1_(T101S, T146K)) (scFv, PRO2230 variant; VH substitutions, AHo numbering; also called PRO2230 T101S-T146K) scFv: DIQMTQSPASLSASVGDRVTITCQASQSIGTYLAWYQQKPGKPPKLLIYRAFILASGVPSRFSGSGSGTDFTLTISSLQPEDFATYYCQSNFYSDSTTIGPNAFGTGTKVTVLGGGGGSGGGGSGGGGSGGGGSEVQLVESGGGLVQPGGSLRLSCAASGFSFNSDYWIYWVRQAPGKGLEWIASIYGGSSGNTQYASWAQGRFTISRDNSKNTVYLQMNSLRAEDSAVYFCARGYVDYGGATDLWGQGTLVKVSS ?
Reply: 0
